- Test system: tet operator sequence
- Method Summary: β-galactosidase activity of a tetracycline-regulated promoter in transformed E. coli with revTetR, in the presence and absence of anhydrotetracycline (atc)
- Format: cell-based, Escherichia coli
- Assay Context: RevTetR isolate cultured in the absence of anhydrotetracycline (ATC)
Property: β-Galactosidase Activity, Cultured Without ATC
Please give only the number in your answer, with no unit.

# input molecule: TetRrev28/48: revTetR(BD) N18Y V20D I22T W43S (protein, Modified tetracycline repressor, revTetR(BD) N18Y V20D I22T W43S) MSRLDKSKVINSALELLYEDGTEGLTTRKLAQKLGVEQPTLYSHVKNKRALLDALAVEILARHHDYSLPAAGESWQSFLRNNAMSFRRALLRYRDGAKVHLGTRPDEKQYDTVETQLRFMTENGFSLRDGLYAISAVSHFTLGAVLEQQEHTAALTDRPAAPDENLPPLLREALQIMDSDDGEQAFLHGLESLIRGFEVQLTALLQIV ; wanted: its β-Galactosidase Activity, Cultured Without ATC
99.3107
